Origin of measurements: paper PMC4057667

Assay: Pharmacokinetic study in beagle dogs
Type: in vivo
Conditions: beagle, dog, plasma, po, 30 mg/kg, i.g., Beagle 6
METRIC NAME: MRT (h)
Please state the figure in h; there is no need to write the unit.

What the record says about `CNC(=O)c1cc(Oc2ccc(NC(=O)c3cccc(C(F)(F)F)c3)cc2)ccn1.Cc1ccc(S(=O)(=O)O)cc1.O` : MRT is 11.2

* * *

Assay: Pharmacokinetic study in beagle dogs
Type: in vivo
Conditions: beagle, dog, plasma, po, 30 mg/kg, i.g., Beagle 6
METRIC NAME: half-life (h)
A number alone suffices; assume h.

Recorded result, CNC(=O)c1cc(Oc2ccc(NC(=O)c3cccc(C(F)(F)F)c3)cc2)ccn1.Cc1ccc(S(=O)(=O)O)cc1.O [NCE] , half-life: 14.9
